molecular target: 5-hydroxytryptamine receptor 1A (Homo sapiens) (UniProt P08908); experiment: Displacement of [3H]8-OH-DPAT from 5HT1A receptor at 10 uM
Sequence (P08908 whole entry): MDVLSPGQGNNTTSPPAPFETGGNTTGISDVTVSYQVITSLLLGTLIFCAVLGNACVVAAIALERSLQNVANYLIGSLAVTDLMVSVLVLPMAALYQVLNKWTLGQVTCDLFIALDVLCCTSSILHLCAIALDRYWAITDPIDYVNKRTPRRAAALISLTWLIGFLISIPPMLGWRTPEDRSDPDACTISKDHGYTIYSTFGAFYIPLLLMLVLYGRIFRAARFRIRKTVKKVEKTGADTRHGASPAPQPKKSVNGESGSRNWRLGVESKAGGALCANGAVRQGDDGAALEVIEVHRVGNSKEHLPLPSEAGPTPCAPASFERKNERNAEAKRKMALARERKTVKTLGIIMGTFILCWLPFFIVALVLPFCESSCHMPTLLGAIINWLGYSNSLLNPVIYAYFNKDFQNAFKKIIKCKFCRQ
recorded.endpoint: Activity (%)
# number only, unit % dropped from output

Take a look at these entries with their results.
molecule: FC(F)(F)c1ccc2c(c1)N(Cc1ccc(CNc3cccc(Oc4ccccc4)c3)cc1)c1ccccc1S2
Activity, %: 0

molecule: COc1ccc2c(c1)Sc1ccccc1N2CC1CCCN(C)C1 (centres undefined)
Activity, %: 0

molecule: OC1CCN(CCCN2c3ccccc3Sc3ccc(C(F)(F)F)cc32)C1 (centres undefined)
Activity, %: 62

As a next step, examine the molecule that follows.
Look at this molecule and give its reported Activity. `CN1CCN(Cc2ccc(CN3c4ccccc4Sc4ccc(C(F)(F)F)cc43)cc2)CC1`
0

All values here come from ChEMBL document CHEMBL1147957.
